Where these numbers come from: paper PMC5913336

# target or system: Ttk-PF (Drosophila melanogaster, UniProt P17789 499-564)
# assay info: FP; 33 mM phosphate pH 7.0, 90 mM NaCl, 0.01% Tween 20, 0.1 mM DTT, 0.5% agarose; room temperature
# assay context: dsDNA, one strand shown
measured metric: binding signal

{"chain sequence": "TCGCCAAGATAAC", "measured metric": "binding signal", "result": "124 Kd / Kd of best base at the position"}

Turning now to a further record.
Would you please give the reported binding signal of `TCCCCAGGATAAC` with Ttk-PF (Drosophila melanogaster, UniProt P17789 499-564)?
2.9 Kd / Kd of best base at the position

###

Kindly supply the reported binding signal values for the records listed here.
# target or system: Gt (Drosophila melanogaster, UniProt P39572 369-448)
# Sequence: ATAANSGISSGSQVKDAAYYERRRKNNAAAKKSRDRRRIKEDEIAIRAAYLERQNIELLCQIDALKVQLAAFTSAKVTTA
# assay info: FP; 33 mM phosphate pH 7.0, 90 mM NaCl, 0.01% Tween 20, 0.1 mM DTT, 0.5% agarose; room temperature
# assay context: tags: N-GST (pGEX-6P-1, kept); chain copies: 2; dsDNA, one strand shown

Each of the following entries comes with a recorded value; kindly state binding signal for each.
1. ATTACTTAACC
2. ATTACGTTACC
3. ATTTCGTAACC

1. 567 Kd / Kd of best base at the position
2. 518 Kd / Kd of best base at the position
3. 177 Kd / Kd of best base at the position

Each of the following entries comes with a recorded value; kindly state binding signal for each.
1. AGTACGTAACC
2. ATTACGTATCC

1. 155 Kd / Kd of best base at the position
2. 549 Kd / Kd of best base at the position

###

# target or system: Pan (Drosophila melanogaster, UniProt P91943 258-356)
# Sequence: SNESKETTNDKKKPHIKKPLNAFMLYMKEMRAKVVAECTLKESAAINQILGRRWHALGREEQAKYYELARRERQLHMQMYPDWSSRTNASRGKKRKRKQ
# assay info: FP; 33 mM phosphate pH 7.0, 90 mM NaCl, 0.01% Tween 20, 0.1 mM DTT, 0.5% agarose; room temperature
# assay context: tags: N-GST (pGEX-6P-1, kept); dsDNA, one strand shown
measured metric: binding signal

{"chain sequence": "ATTCTTTGATAAA", "target or system": "Pan (Drosophila melanogaster, UniProt P91943 258-356)", "result": "1.9 Kd / Kd of best base at the position"}

Consider the sequence `AGTCTATGATAAA` and give its recorded binding signal.
8.1 Kd / Kd of best base at the position

###

# target or system: Slp1-FL (Drosophila melanogaster, UniProt P32030)
# Sequence: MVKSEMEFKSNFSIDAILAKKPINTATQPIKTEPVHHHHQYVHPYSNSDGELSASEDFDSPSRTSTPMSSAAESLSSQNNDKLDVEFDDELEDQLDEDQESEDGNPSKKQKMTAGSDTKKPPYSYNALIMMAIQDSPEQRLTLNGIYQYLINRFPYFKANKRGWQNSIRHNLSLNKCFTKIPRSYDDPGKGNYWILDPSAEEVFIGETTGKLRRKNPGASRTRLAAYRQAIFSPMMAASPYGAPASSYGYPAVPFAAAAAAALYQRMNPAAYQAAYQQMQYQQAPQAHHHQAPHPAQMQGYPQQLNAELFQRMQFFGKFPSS
# assay info: FP; 33 mM phosphate pH 7.0, 90 mM NaCl, 0.01% Tween 20, 0.1 mM DTT, 0.5% agarose; room temperature
# assay context: tags: N-GST (pGEX-6P-1, kept); dsDNA, one strand shown
measured metric: binding signal

Reference set, count: 3
{"chain sequence": "ACGTGTTTTCACTTA", "target or system": "Slp1-FL (Drosophila melanogaster, UniProt P32030)", "binding signal": "13 Kd / Kd of best base at the position"}
{"chain sequence": "ACGTGATTACACTTA", "target or system": "Slp1-FL (Drosophila melanogaster, UniProt P32030)", "binding signal": "19 Kd / Kd of best base at the position"}
{"chain sequence": "ACGTGTTTACACGTA", "target or system": "Slp1-FL (Drosophila melanogaster, UniProt P32030)", "binding signal": "2.9 Kd / Kd of best base at the position"}

Turning now to a further record.
Consider the sequence `ACGTGTTAACACTTA` and give its recorded binding signal.
14 Kd / Kd of best base at the position
